# Tested on: RXF 393 renal
# assayMethodText: NCI tumour cell line growth inhibition, 48 h; in the data active means GI50 below about 0.43 µM; inactive means the rest
Classes used: TRUE = active, FALSE = inactive

>  <compound>
C/C(=N/O)c1ccc2c(c1)/C(=N/O)c1ccccc1-2

>  <classLabel>
FALSE

$$$$
>  <compound>
Cc1ccc(Cl)cc1NC(=O)c1cc2ccccc2cc1O

>  <classLabel>
FALSE

$$$$
>  <compound>
Cc1nc(-c2cnc(NC(C)C)n(C)c2=O)ccc1Oc1ccnc(-c2cnn(C)c2)c1

>  <classLabel>
FALSE

$$$$
>  <compound>
O=C1c2ccccc2C(=O)c2c1ccc1c(=O)n(-c3ccccc3C(F)(F)F)nnc21

>  <classLabel>
FALSE

$$$$
>  <compound>
CC[C@]1(O)CC2CN(CCc3c([nH]c4ccccc34)[C@@](C(=O)OC)(c3cc4c(cc3OC)N(C=O)[C@H]3[C@@](O)(C(=O)OC)[C@H](OC(C)=O)[C@]5(CC)C=CCN6CC[C@]43[C@@H]65)C2)C1 (some centres undefined)

>  <classLabel>
TRUE

$$$$
>  <compound>
O=c1c2ccccc2nc(-c2ccccc2Cl)n1-c1nnc(C(F)(F)F)s1

>  <classLabel>
FALSE

$$$$
>  <compound>
O=C1c2cccnc2C(=O)c2c1c(C(=O)NCCn1ccnc1)c1ccccn21

>  <classLabel>
FALSE

$$$$
>  <compound>
Nc1nnnc2nc[nH]c12

>  <classLabel>
FALSE

$$$$
>  <compound>
COc1cc(/C=C/C(=O)/C=C/c2cc3ccc(Cl)cc3n(Cc3ccccc3)c2=O)ccc1O

>  <classLabel>
FALSE

$$$$

Source listed as PubChem BioAssay (NCI).
